Just for reference, PubChem BioAssay AID1159580 is where these values come from.

# METHOD: chemical genetic growth profiling, strain panel (AID 1159580);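 note: tested at 20 µM; growth read once vehicle control cultures reached saturation at 30 °C; 1 = growth at the plate median or of vehicle wells; lower values mean less growth of the strain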
# PROTOCOL_CONDITIONS: S. cerevisiae deletion strains, growth OD, locus YML070W, strain DAK1, active compounds read low
The whole screen tested about 5,500 compounds, of which about 2,000 (36%) were called active. Roughly 18% stayed inconclusive and do not appear here. The list shows a part of the results.
Kindly apply the following: 1.0 if normalized growth is less than 0.9, 0.0 in every other case.

1. CCCc1cnc(N2CCN(CC(=O)N(c3ccccc3)C3CCCCC3)CC2)nc1 0.0
2. CCn1nc(C)cc1-c1nnc(Sc2ncc([N+](=O)[O-])s2)n1C 0.0
3. CC(C)(C)c1csc(NNC(=O)c2ccc(Cl)cc2)n1 1.0
4. CN(C(=O)N(C)c1ccc(Cl)cc1C(=O)c1ccccc1Cl)c1ccc(Cl)cc1C(=O)c1ccccc1Cl 1.0
5. N=c1ccc2nc3c(Cl)c4c(c(Cl)c3oc-2c1S(=O)(=O)O)Nc1ccc(N)c(S(=O)(=O)O)c1O4 0.0

Now consider the entry below.
# check: normalized growth < 0.9 for `CC(C)c1ccc(-c2cc(=O)c3ccccc3o2)cc1`
1.0

====

# METHOD: chemical genetic growth profiling, strain panel (AID 1159580);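 note: tested at 20 µM; growth read once vehicle control cultures reached saturation at 30 °C; 1 = growth at the plate median or of vehicle wells; lower values mean less growth of the strain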
# PROTOCOL_CONDITIONS: S. cerevisiae deletion strains, growth OD, locus YCL029C, strain bik1, active compounds read low
The campaign covered roughly 5,500 compounds. About 2,000 (36%) were called active. Another 18% or so got no clear call; they are omitted. The list shows a part of the results.
VALUE_KIND: normalized growth

MOLECULE	normalized growth
CC(=O)O[C@H]1C[C@H](O[C@H]2[C@@H](O)C[C@H](O[C@H]3[C@@H](O)C[C@H](O[C@H]4CC[C@@]5(C)C(CCC6C5C[C@@H](O)[C@]5(C)[C@@H](C7=CC(=O)OC7)CC[C@]65O)C4)O[C@@H]3C)O[C@@H]2C)O[C@H](C)[C@H]1O[C@@H]1O[C@H](CO)[C@@H](O)[C@H](O)[C@H]1O (stereo partly specified)	0.985 (inactive)
C[C@@H]1CC[C@@]2(OC1)OC1C(O)C3C4CC[C@H]5C[C@H](O[C@@H]6O[C@H](CO)[C@H](O[C@@H]7O[C@H](CO)[C@@H](O)[C@H](O[C@@H]8OC[C@@H](O)[C@H](O)[C@H]8O)[C@H]7O[C@@H]7O[C@H](CO)[C@H](O)[C@H](O[C@@H]8O[C@H](CO)[C@@H](O)[C@H](O)[C@H]8O)[C@H]7O)[C@H](O)[C@H]6O)[C@H](O)C[C@]5(C)C4CC[C@]3(C)C1[C@@H]2C (stereo partly specified)	0.0554 (active)
O=C(O)/C=C(\CC(=O)O)C(=O)O	0.968 (inactive)
COc1ccc(-c2cc(=O)c3ccccc3o2)cc1	0.753 (active)
COc1ccc(-c2cc(=O)c3ccccc3o2)cc1OC	0.974 (inactive)

Which normalized growth value belongs to CC1(C)O[C@@H]2CC3C4CCC5=CC(=O)C=C[C@]5(C)[C@@]4(F)[C@@H](O)C[C@]3(C)[C@]2(C(=O)CO)O1 (stereo partly specified) ?
1 (inactive)

====

# METHOD: chemical genetic growth profiling, strain panel (AID 1159580);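 note: tested at 20 µM; growth read once vehicle control cultures reached saturation at 30 °C; 1 = growth at the plate median or of vehicle wells; lower values mean less growth of the strain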
# PROTOCOL_CONDITIONS: S. cerevisiae deletion strains, growth OD, locus YNL153C, strain GIM3, active compounds read low
Hit rate of the full screen: of about 5,500 compounds, about 2,000 (36%) were called active. Another 18% or so got no clear call; they are omitted. The list shows a part of the results.
VALUE_KIND: normalized growth

Below, 4 compounds whose answers are already recorded.
COMPOUND	normalized growth
NC(=O)CC[C@@H](N)C(=O)O	1.02 (inactive)
COc1c(O)cc2c(-c3ccccc3)cc(=O)oc2c1OC	1 (inactive)
COc1cccc(-c2cc(=O)c3ccc(OC)cc3o2)c1	0.997 (inactive)
O=C1CCCc2c1c1ccccc1n2Cc1ccccc1	0.98 (inactive)

Could I get normalized growth for every one of these entries?
1. CCCCCCCCCc1ccc(O)cc1
2. CCCCCCCCCCc1ccc(-c2ccccc2)cc1
3. CC(=O)O[C@H]1C[C@@]2(C)[C@H](c3ccoc3)OC(=O)[C@H]3O[C@]32[C@@]2(C)C1[C@]1(C)C(C[C@H]2OC(C)=O)C(C)(C)[C@H](OC(C)=O)C[C@@H]1OC(C)=O (stereo partly specified)
4. CC(=O)O[C@@H]1CC2C(C)(C)C(=O)CC[C@]2(C)C2CC[C@@]3(C)[C@H](c4ccoc4)OC(=O)C4OC43[C@@]21C (stereo partly specified)
5. CN1CCc2c(c3ccccc3n2Cc2ccccc2)C1

1. 0.117 (active)
2. 1 (inactive)
3. 0.985 (inactive)
4. 1.01 (inactive)
5. 0.945 (inactive)

Could I get normalized growth for every one of these entries?
1. Cc1ccc(C(=O)c2ccccc2[N+](=O)[O-])cc1
2. CN1CCc2ccccc2Cc2[nH]c3ccccc3c2CC1

1. 0.954 (inactive)
2. 1.03 (inactive)
